# test_method_notes: Volume of distribution in Beagle dog at 0.1 mg/kg, iv and 0.5 mg/kg, po
# Format: ADME, organism-based, Canis lupus familiaris
# condition_set: in vivo
outcome_measure: Vd (L/kg)

P = CN(C)C(=N)c1ccc(C(=O)Nc2ccccc2C(=O)Nc2ccc(Cl)cn2)cc1
Q = CN1CCN=C1c1ccc(C(=O)Nc2ccccc2C(=O)Nc2ccc(Cl)cn2)cc1
[in] Lab note: record which item had the higher Vd, P or Q . Answer with the label corresponding to your selection.
[out] P
(P: 13.7 L/kg, Q: 9.2 L/kg)

###

# test_method_notes: Inhibition of trypsin
pIC50: −log10 of the molar value.
outcome_measure: pIC50

[in] May I ask what pIC50 has been recorded for `N=C(N)c1ccc(C(=O)Nc2ccccc2C(=O)Nc2ccc(Cl)cn2)cc1` ?
[out] < 5.00
